All figures here come from patent US20230303581A1.

experiment: PK evaluation in CD-1 mice (plasma and tissue concentrations); type: in vivo; settings: male, CD-1, mouse; intravenous 5 mg/kg, plasma
resultType: clearance (mL/min/kg)

>>> resultnumber("O=C1c2ccc(Cl)cc2N/C(=N/N=C/c2cc3ccccc3s2)[C@@H]2CCCN12")
23.5

###

experiment: PK evaluation in CD-1 mice (plasma and tissue concentrations); assay type: in vivo; details: male, CD-1, mouse; intravenous 5 mg/kg, brain
resultType: half-life (h)

>>> resultnumber("O=C1c2ccc(Cl)cc2N/C(=N/N=C/c2cc3ccccc3s2)[C@@H]2CCCN12")
6.54

###

test: PK evaluation in CD-1 mice (plasma and tissue concentrations); format: in vivo; conditions: male, CD-1, mouse; oral 5 mg/kg, plasma
resultType: AUC(0-inf) (ng·h/mL)

>>> resultnumber("O=C1c2ccc(Cl)cc2N/C(=N/N=C/c2cc3ccccc3s2)[C@@H]2CCCN12 [Compound 4k]")
739

###

assay: PK evaluation in CD-1 mice (plasma and tissue concentrations); assay type: in vivo; conditions: male, CD-1, mouse; intravenous 5 mg/kg, kidney
resultType: clearance (mL/min/kg)

>>> resultnumber("O=C1c2ccc(Cl)cc2N/C(=N/N=C/c2cc3ccccc3s2)[C@@H]2CCCN12")
6.38

###

assay: PK evaluation in CD-1 mice (plasma and tissue concentrations); assay type: in vivo; settings: male, CD-1, mouse; oral 5 mg/kg, kidney
resultType: Tmax (min)

>>> resultnumber("O=C1c2ccc(Cl)cc2N/C(=N/N=C/c2cc3ccccc3s2)[C@@H]2CCCN12")
45

###

assay: PK evaluation in CD-1 mice (plasma and tissue concentrations); assay type: in vivo; details: male, CD-1, mouse; oral 5 mg/kg, brain; read-out: F (apparent oral bioavailability)
resultType: bioavailability (%)

>>> resultnumber("O=C1c2ccc(Cl)cc2N/C(=N/N=C/c2cc3ccccc3s2)[C@@H]2CCCN12")
43

###

assay: PK evaluation in CD-1 mice (plasma and tissue concentrations); format: in vivo; settings: male, CD-1, mouse; oral 5 mg/kg, plasma; read-out: Cmax
resultType: Cmax (ng/mL)

>>> resultnumber("O=C1c2ccc(Cl)cc2N/C(=N/N=C/c2cc3ccccc3s2)[C@@H]2CCCN12")
198

###

test: PK evaluation in CD-1 mice (plasma and tissue concentrations); type: in vivo; conditions: male, CD-1, mouse; oral 5 mg/kg, plasma
resultType: half-life (h)

>>> resultnumber("O=C1c2ccc(Cl)cc2N/C(=N/N=C/c2cc3ccccc3s2)[C@@H]2CCCN12")
16.4

###

assay: PK evaluation in CD-1 mice (plasma and tissue concentrations); assay type: in vivo; conditions: male, CD-1, mouse; oral 5 mg/kg, liver
resultType: half-life

>>> result("O=C1c2ccc(Cl)cc2N/C(=N/N=C/c2cc3ccccc3s2)[C@@H]2CCCN12 [Compound 4k]")
"13 h"

###

Target: human CB2 receptors (Homo sapiens (Human), UniProt P34972)
Sequence (P34972 whole entry): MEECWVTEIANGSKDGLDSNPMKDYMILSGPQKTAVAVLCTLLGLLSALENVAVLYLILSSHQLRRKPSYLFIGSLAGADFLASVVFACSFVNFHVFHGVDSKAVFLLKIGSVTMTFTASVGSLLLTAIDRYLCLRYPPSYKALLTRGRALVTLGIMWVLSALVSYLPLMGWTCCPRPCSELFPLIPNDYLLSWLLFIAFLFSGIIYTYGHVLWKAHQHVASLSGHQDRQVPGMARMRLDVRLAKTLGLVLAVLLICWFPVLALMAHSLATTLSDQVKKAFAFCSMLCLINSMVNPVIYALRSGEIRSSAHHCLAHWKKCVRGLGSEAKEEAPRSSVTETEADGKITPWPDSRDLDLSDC
Experiment: Cannabinoid receptor binding (displacement) assay, CB2
Conditions: 10 μM compound
Description: The affinities of the compounds for CB1 and CB2 receptors were examined using displacement assays, as previously described. […] Total binding was assessed in the presence of equal concentration of DMSO, while non-specific binding was determined in the presence of 10 μM CP-55,940, and background binding was determined in wells lacking membrane. […] Liquid scintillation cocktail was added to each well and the total tritiated counts per minute were analyzed using a TopCount scintillation counter. […]
Please respond with met when measured Displacement of [3H]CP-55,940 from CB2 is strictly beneath 20%, and with not met in all other cases.

>>> grouplabel("Cc1c(/C=N/N=C2/Nc3ccccc3C(=O)N3CCC[C@@H]23)sc2ccccc12 [Compound 4l]")
"not met"
>>> grouplabel("Cn1cc(/C=N/N=C2/Nc3ccccc3C(=O)N3CCC[C@@H]23)c2ccccc21 [Compound 4o]")
"met"
>>> grouplabel("O=C1c2ccccc2N/C(=N/N=C/c2sc(Cl)nc2Cl)[C@@H]2CCCN12 [Compound 4g]")
"not met"
>>> grouplabel("Cc1ncc(/C=N/N=C2/Nc3ccccc3C(=O)N3CCC[C@@H]23)s1 [Compound 4d]")
"met"
>>> grouplabel("Cn1ccnc1/C=N/N=C1/Nc2ccccc2C(=O)N2CCC[C@@H]12 [Compound 4b]")
"met"
>>> grouplabel("O=C1c2ccccc2N/C(=N/N=C/c2sc3ccccc3c2Cl)[C@@H]2CCCN12 [Compound 4m]")
"not met"
>>> grouplabel("O=C1c2ccccc2N/C(=N/N=C/c2ccc[nH]2)[C@@H]2CCCN12 [Compound 4a]")
"met"
>>> grouplabel("Nc1ncc(/C=N/N=C2/Nc3ccccc3C(=O)N3CCC[C@@H]23)s1 [Compound 4f]")
"met"
